# test target: 17-beta-hydroxysteroid dehydrogenase type 3 (Homo sapiens) (UniProt P37058)
# Sequence (P37058 whole entry): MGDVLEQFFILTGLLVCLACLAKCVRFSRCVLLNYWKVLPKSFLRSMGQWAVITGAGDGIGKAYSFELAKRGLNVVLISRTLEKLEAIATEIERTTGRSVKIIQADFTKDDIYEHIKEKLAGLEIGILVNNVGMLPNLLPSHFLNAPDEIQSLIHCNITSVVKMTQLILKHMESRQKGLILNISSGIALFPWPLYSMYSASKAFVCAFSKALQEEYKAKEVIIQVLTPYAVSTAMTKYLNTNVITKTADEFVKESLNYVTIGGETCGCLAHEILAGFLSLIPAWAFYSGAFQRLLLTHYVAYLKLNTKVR
# test description: Inhibition of 17Beta-HSD3 expressed in homogenized HEK293 cells assessed as transformation of [14C]-4-androstene-3,17-dione into [14C]-testosterone in presence of NADPH at 0.01 uM
# Assay type: cell-based
Field: inhibition. Provide a value for each of the molecules that follow.
Please give a number only; it is taken to be in %.

Give the value of inhibition reported for the following: C[C@@H]1CN(Cc2ccc(C(F)(F)F)cc2C(F)(F)F)[C@@H](C)CN1C[C@@]1(O)CC[C@@]2(C)[C@@H](CC[C@@H]3[C@@H]2CC[C@]2(C)C(=O)CC[C@@H]32)C1
15

Give the value of inhibition reported for the following: C[C@]12CC[C@@]3(C[C@@H]1CC[C@@H]1[C@@H]2CC[C@]2(C)C(=O)CC[C@@H]12)CN(Cc1ccc(C(F)(F)F)nc1)C(=O)O3
3

Give the value of inhibition reported for the following: C[C@]12CC[C@](O)(CN3CCN(C(=O)C4CCCCC4)CC3)C[C@@H]1CC[C@@H]1[C@@H]2CC[C@]2(C)C(=O)CC[C@@H]12
19

Give the value of inhibition reported for the following: CCN(CCN1C[C@]2(CC[C@@]3(C)[C@@H](CC[C@@H]4[C@@H]3CC[C@]3(C)C(=O)CC[C@@H]43)C2)OC1=O)C1CCCCC1
2

Give the value of inhibition reported for the following: C[C@]12CC[C@@]3(C[C@@H]1CC[C@@H]1[C@@H]2CC[C@]2(C)C(=O)CC[C@@H]12)CN(CCBr)C(=O)O3
17

Give the value of inhibition reported for the following: C[C@]12CC[C@](O)(CN3CCN(Cc4cccc(SC(F)(F)F)c4)CC3)C[C@@H]1CC[C@@H]1[C@@H]2CC[C@]2(C)C(=O)CC[C@@H]12
3
